relative viability listing for selected compounds.
tested on: UMC-11; test: relative viability (nuclei count vs DMSO), 5 days (fraction); higher = more cells survive; conditions: first compound 0.01 µM
Would you mind answering with just the numeric figure?

INSERT INTO results (compound, assayed_system, result_value) VALUES
  ('CCN(CC)CCCCNc1ncc2cc(-c3cc(OC)cc(OC)c3)c(NC(=O)NC(C)(C)C)nc2n1 + COc1cc2c(Oc3ccc(NC(=O)C4(C(=O)Nc5ccc(F)cc5)CC4)cc3F)ccnc2cc1OCCCN1CCOCC1 [Foretinib] (partner 0.25 µM)', 'UMC-11', 0.952),
  ('O=c1cc(N2CCOCC2)oc2c(-c3cccc4c3sc3ccccc34)cccc12 + CCNC(=O)c1noc(-c2cc(C(C)C)c(O)cc2O)c1-c1ccc(CN2CCOCC2)cc1 [Luminespib] (partner 0.01 µM)', 'UMC-11', 0.971),
  ('O=c1cc(N2CCOCC2)oc2c(-c3cccc4c3sc3ccccc34)cccc12 + COc1cc2c(Oc3ccc(NC(=O)C4(C(=O)Nc5ccc(F)cc5)CC4)cc3F)ccnc2cc1OCCCN1CCOCC1 [Foretinib] (partner 0.25 µM)', 'UMC-11', 1),
  ('CCN(CC)CCCCNc1ncc2cc(-c3cc(OC)cc(OC)c3)c(NC(=O)NC(C)(C)C)nc2n1 + C[C@@H](Oc1cc(-c2cnn(C3CCNCC3)c2)cnc1N)c1c(Cl)ccc(F)c1Cl [Crizotinib] (partner 1 µM)', 'UMC-11', 0.691),
  ('CCN(CC)CCCCNc1ncc2cc(-c3cc(OC)cc(OC)c3)c(NC(=O)NC(C)(C)C)nc2n1 + O=C(CCCCCCC(=O)Nc1ccccc1)NO [Vorinostat] (partner 1 µM)', 'UMC-11', 0.4),
  ('O=c1cc(N2CCOCC2)oc2c(-c3cccc4c3sc3ccccc34)cccc12 + CC1(C)CCC(c2ccc(Cl)cc2)=C(CN2CCN(c3ccc(C(=O)NS(=O)(=O)c4ccc(N[C@H](CCN5CCOCC5)CSc5ccccc5)c(S(=O)(=O)C(F)(F)F)c4)cc3)CC2)C1 [Navitoclax] (partner 0.5 µM)', 'UMC-11', 0.302),
  ('CCN(CC)CCCCNc1ncc2cc(-c3cc(OC)cc(OC)c3)c(NC(=O)NC(C)(C)C)nc2n1 + CC(=O)c1c(C)c2cnc(Nc3ccc(N4CCNCC4)cn3)nc2n(C2CCCC2)c1=O [Palbociclib] (partner 0.5 µM)', 'UMC-11', 0.338),
  ('CCN(CC)CCCCNc1ncc2cc(-c3cc(OC)cc(OC)c3)c(NC(=O)NC(C)(C)C)nc2n1 + Cc1cc(Nc2cc(N3CCN(C)CC3)nc(Sc3ccc(NC(=O)C4CC4)cc3)n2)n[nH]1 [Tozasertib] (partner 0.1 µM)', 'UMC-11', 0.214);

Query: Would you kindly share the measured relative viability for CCN(CC)CCCCNc1ncc2cc(-c3cc(OC)cc(OC)c3)c(NC(=O)NC(C)(C)C)nc2n1 + CC(=O)Nc1cccc(-n2c(=O)n(C3CC3)c(=O)c3c(Nc4ccc(I)cc4F)n(C)c(=O)c(C)c32)c1 [Trametinib] (partner 0.02 µM) ?
Result: 0.686

Query: Give the measured relative viability of CCN(CC)CCCCNc1ncc2cc(-c3cc(OC)cc(OC)c3)c(NC(=O)NC(C)(C)C)nc2n1 + Cc1nc(Nc2ncc(C(=O)Nc3c(C)cccc3Cl)s2)cc(N2CCN(CCO)CC2)n1 [Dasatinib] (partner 0.075 µM) .
Result: 0.541

Query: # relative viability lookup, item O=c1cc(N2CCOCC2)oc2c(-c3cccc4c3sc3ccccc34)cccc12 + C[C@]1(O)C[C@@H](c2nc(-c3ccc4ccc(-c5ccccc5)nc4c3)c3c(N)nccn32)C1 [Linsitinib] (partner 1 µM)
Result: 1.07
